# testedTarget: furin, P09958;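 further: purified furin at 1:10 enzyme:substrate in 50 mM HEPES pH 7.5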
# Sequence (P09958 whole entry): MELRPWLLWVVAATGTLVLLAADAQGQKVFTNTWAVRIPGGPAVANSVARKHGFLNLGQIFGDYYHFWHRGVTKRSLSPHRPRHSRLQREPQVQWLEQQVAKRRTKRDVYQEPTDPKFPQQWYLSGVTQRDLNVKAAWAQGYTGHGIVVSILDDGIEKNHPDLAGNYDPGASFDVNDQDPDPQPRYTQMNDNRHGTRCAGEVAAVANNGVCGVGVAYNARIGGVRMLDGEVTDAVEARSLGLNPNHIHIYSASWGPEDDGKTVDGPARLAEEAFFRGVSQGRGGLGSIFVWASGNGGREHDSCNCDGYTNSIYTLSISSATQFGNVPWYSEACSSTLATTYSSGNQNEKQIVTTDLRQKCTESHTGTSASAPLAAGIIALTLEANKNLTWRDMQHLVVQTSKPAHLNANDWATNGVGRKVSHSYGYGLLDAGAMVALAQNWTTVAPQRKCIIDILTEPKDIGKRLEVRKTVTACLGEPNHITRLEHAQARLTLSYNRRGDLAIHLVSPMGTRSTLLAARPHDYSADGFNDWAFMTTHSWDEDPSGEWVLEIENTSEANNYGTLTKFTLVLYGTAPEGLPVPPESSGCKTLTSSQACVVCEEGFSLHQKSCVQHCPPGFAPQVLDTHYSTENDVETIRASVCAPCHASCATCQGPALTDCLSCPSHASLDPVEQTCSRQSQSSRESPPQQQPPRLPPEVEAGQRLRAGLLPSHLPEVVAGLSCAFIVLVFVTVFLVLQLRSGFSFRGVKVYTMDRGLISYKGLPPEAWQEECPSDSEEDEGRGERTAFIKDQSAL
# assayDetails: furin cleavage Z-score vs untreated control; higher = more cleavage, active = 3.5 or more, inactive = 1 or less, 8 variable residues between constant flanks
# setupConditions: 30 min
This is one part of the list. How many sequences the whole screen found active is unknown.
furin cleavage Z-score listing for selected sequences.
Keep the answer to the number alone.

query: Report measured furin cleavage Z-score; entry is CAKKKRKFSKAGNASASA [FS-2866]
result: -0.0235

query: Report measured furin cleavage Z-score; entry is CAKKKRRKRKAGNASASA [FS-1218]
result: 6.09

query: Report measured furin cleavage Z-score; entry is CAGESRSRRRAGNASASA [FS-329]
result: 3.66

query: Report measured furin cleavage Z-score; entry is CAKKKRVVPKAGNASASA [FS-2122]
result: -0.937
